measured target: S1R (Rattus norvegicus)
Construct: liver homogenates (250 μg/sample) from male Sprague Dawley rats; from tissue; host or cells: liver homogenate of male Sprague Dawley rats
Sequence (Q9R0C9 whole entry): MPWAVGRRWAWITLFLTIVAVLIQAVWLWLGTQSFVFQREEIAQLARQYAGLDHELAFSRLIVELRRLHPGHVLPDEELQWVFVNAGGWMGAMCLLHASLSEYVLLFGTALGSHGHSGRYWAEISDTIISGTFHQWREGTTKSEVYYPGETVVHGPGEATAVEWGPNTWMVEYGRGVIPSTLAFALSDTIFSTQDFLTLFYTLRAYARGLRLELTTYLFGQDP
assay protocol: S1R radioligand binding assay ([3H]-pentazocine, rat liver homogenates)
condition: selectivity ratio Ki S2R / Ki S1R
We label by threshold. Values of S2R/S1R strictly beneath 2 are Met. Values of 2 and up are Not met.

Check if S2R/S1R falls below 2 for O=C(CCCN1CCc2ccccc2C1)c1ccc(F)cc1 [4b] .
Not met

Does COc1ccc(CN(C)CCCC(=O)c2ccc(F)cc2)cc1OC [4c] have S2R/S1R strictly under 2?
Met

In plain terms, does O=C(CCCN1CCN(c2ccc(F)cc2)CC1)c1ccc(F)cc1 [4f] come in under 2 for S2R/S1R?
Met

Given Fc1ccc(-n2cc(CCCCN3CCC4(CC3)OCc3ccccc34)c3ccccc32)cc1 [SRM, siramesine, reference compound] , is recorded S2R/S1R strictly lower than 2?
Met

S2R/S1R strictly < 2 for this molecule? COc1ccc(CC2CCN(CCCC(=O)c3ccc(F)cc3)CC2)cc1OC [4j]
Not met

API: query returns whether the molecule falls strictly under 2 in S2R/S1R. Query: COc1cc2c(cc1OC)CN(CCCC(=O)c1ccc(F)cc1)CC2 [4e]
Met

Consider the molecule O=C(CCCN1CCN(C2CCCCC2)CC1)c1ccc(F)cc1 [4d] . Is its S2R/S1R strictly less than 2?
Met

I'd appreciate it if you could check whether Cc1ccc(CN(C)CCCC(=O)c2ccc(F)cc2)c(C)c1 [4h] has S2R/S1R smaller than 2.
Met

Criterion: S2R/S1R strictly below 2. Is it met by O=C(CCCN1CCC2(CC1)OCc1ccccc12)c1ccc(F)cc1 [4g] ?
Met

Criterion: S2R/S1R strictly below 2. Is it met by O=C(CCCN1CCCN(Cc2ccccc2)CC1)c1ccc(F)cc1 [4a] ?
Not met

* * *

measured target: S2R (Rattus norvegicus, UniProt Q5U3Y7)
Construct: liver homogenates (250 μg/sample) from male Sprague Dawley rats; from tissue; host or cells: liver homogenate of male Sprague Dawley rats
Sequence (Q5U3Y7 whole entry): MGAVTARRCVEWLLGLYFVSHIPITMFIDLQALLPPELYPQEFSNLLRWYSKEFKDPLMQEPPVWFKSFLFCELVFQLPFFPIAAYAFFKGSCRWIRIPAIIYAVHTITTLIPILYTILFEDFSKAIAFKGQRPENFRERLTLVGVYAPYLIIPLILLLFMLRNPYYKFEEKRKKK
assay protocol: S2R radioligand binding assay ([3H]-DTG with (+)-pentazocine mask, rat liver homogenates)
condition: selectivity ratio Ki S1R / Ki S2R
measured attribute: S1R/S2R

Tell me its S1R/S2R given COc1cc2c(cc1OC)CN(CCCC(=O)c1ccc(F)cc1)CC2 as the entry.
241

Give the reported value of S1R/S2R for this record: O=C(CCCN1CCc2ccccc2C1)c1ccc(F)cc1
0.35

Hello, please tell me recorded S1R/S2R for this one: O=C(CCCN1CCN(C2CCCCC2)CC1)c1ccc(F)cc1
1.4

Given the molecule COc1ccc(CC2CCN(CCCC(=O)c3ccc(F)cc3)CC2)cc1OC , write its reported S1R/S2R.
0.04

Provide only the value of recorded S1R/S2R for COc1ccc(CN(C)CCCC(=O)c2ccc(F)cc2)cc1OC
2.0

Write down S1R/S2R measured for item O=C(CCCN1CCN(c2ccc(F)cc2)CC1)c1ccc(F)cc1
4.3

# return recorded S1R/S2R for input Fc1ccc(-n2cc(CCCCN3CCC4(CC3)OCc3ccccc34)c3ccccc32)cc1 [SRM, siramesine, reference compound]
0.8

Return S1R/S2R for the following molecule: O=C(CCCN1CCC2(CC1)OCc1ccccc12)c1ccc(F)cc1
0.7

Answer with reported S1R/S2R of O=C(CCCN1CCC(c2ccncc2)CC1)c1ccc(F)cc1
0.5

State, in one line, measured S1R/S2R of Cc1ccc(CN(C)CCCC(=O)c2ccc(F)cc2)c(C)c1
2.1
